FYI, the data here is from the Human Domainome abundance scans (Beltran et al. 2025).

B1: Max-interacting protein 1, residues 70 to 120; numbered along this chain, P50539 (parent)
chain: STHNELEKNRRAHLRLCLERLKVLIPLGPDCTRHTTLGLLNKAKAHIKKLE

Variants of: B1
measurementProtocol: abundance fitness (aPCA) (normalised: wild type 0, dead -1); higher = more abundant; growth selection in yeast, the domain comes from the species named
settings: Homo sapiens
Outcome label depends on abundance fitness relative to -0.3: at/above gives condition met, below gives condition not met.

sequenceChange: G38F
qualitativeLabel: condition not met
--
sequenceChange: L21F
qualitativeLabel: condition not met
--
sequenceChange: K22V
qualitativeLabel: condition not met
--
sequenceChange: R33I
qualitativeLabel: condition not met
--
sequenceChange: H34C
qualitativeLabel: condition met
--
sequenceChange: A12L
qualitativeLabel: condition not met
--
sequenceChange: L18D
qualitativeLabel: condition not met
--
sequenceChange: E51S
qualitativeLabel: condition met
--
sequenceChange: E51C
qualitativeLabel: condition met
--
sequenceChange: P29T
qualitativeLabel: condition met
--
sequenceChange: P26F
qualitativeLabel: condition not met
--
sequenceChange: T36S
qualitativeLabel: condition met
--
sequenceChange: A43K
qualitativeLabel: condition not met
--
sequenceChange: D30S
qualitativeLabel: condition met
--
sequenceChange: L50Y
qualitativeLabel: condition not met
--
sequenceChange: L40S
qualitativeLabel: condition not met
--
sequenceChange: C17R
qualitativeLabel: condition not met
--
sequenceChange: R33G
qualitativeLabel: condition met
--
sequenceChange: K8H
qualitativeLabel: condition met
--
sequenceChange: L27G
qualitativeLabel: condition met
--
sequenceChange: I47Q
qualitativeLabel: condition not met
--
sequenceChange: L16H
qualitativeLabel: condition not met
--
sequenceChange: L18S
qualitativeLabel: condition not met
--
sequenceChange: A43H
qualitativeLabel: condition not met
--
sequenceChange: T36G
qualitativeLabel: condition met
--
sequenceChange: L40P
qualitativeLabel: condition not met
--
sequenceChange: T2I
qualitativeLabel: condition met
--
sequenceChange: V23K
qualitativeLabel: condition met
--
sequenceChange: P26C
qualitativeLabel: condition met
--
sequenceChange: L37A
qualitativeLabel: condition met
--
sequenceChange: K8D
qualitativeLabel: condition not met
--
sequenceChange: L39A
qualitativeLabel: condition not met
--
sequenceChange: E19M
qualitativeLabel: condition not met
--
sequenceChange: L39H
qualitativeLabel: condition not met
--
sequenceChange: H13N
qualitativeLabel: condition met
--
sequenceChange: E19W
qualitativeLabel: condition not met
--
sequenceChange: E19A
qualitativeLabel: condition met
--
sequenceChange: E5S
qualitativeLabel: condition met
--
sequenceChange: L37K
qualitativeLabel: condition met
--
sequenceChange: T35P
qualitativeLabel: condition met
--
sequenceChange: V23Y
qualitativeLabel: condition met
--
sequenceChange: A12V
qualitativeLabel: condition not met
--
sequenceChange: H34T
qualitativeLabel: condition met
--
sequenceChange: S1N
qualitativeLabel: condition met
